Origin of values: PubChem BioAssay AID463074

- Test system: HMLE_sh_eGFP viability, CellTiter-Glo luminescence, 72 h
- Protocol details: cytotoxicity in HMLE control line with eGFP shRNA, dose response, counter-screen for HMLE_sh_ECad selective toxicity project, cell-based, HMLE_sh_eGFP, luminescence (AID 463074);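 further: counterscreen control line to flag general toxicity for the HMLE_sh_ECad screen; potency for loss of viability as luminescence drops below DMSO wells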;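 active means AC50 no more than tenfold above the top dose tested, or full inhibition at every dose with a flat fit (cut at about 19 µM in these data); inconclusive means flat curve fit with inhibition between 30% and 70%, or poor fit; inactive means AC50 more than tenfold above the top dose tested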
Would you mind answering with one of these outcomes? active, inactive

Some entries whose results are on file:
INSERT INTO results (molecule, test_target, answer_label) VALUES
  ('Cc1ccc(F)c(NC(=O)/C(C#N)=C(\O)c2ccc(C(C)(C)C)cc2)c1', 'HMLE_sh_eGFP viability, CellTiter-Glo luminescence, 72 h', 'active'),
  ('Cc1ccc(C(=O)N/N=C\c2ccc(-c3ccc(Cl)c(Cl)c3)o2)cn1', 'HMLE_sh_eGFP viability, CellTiter-Glo luminescence, 72 h', 'active');

Q. Test call, this molecule: `c1cn2c(NC3CCCCC3)c(-c3ccc(SC4CCCCC4)cc3)nc2cn1`
A. active

Q. Test call, this molecule: `O=S(=O)(Nc1nc2ccccc2nc1Nc1ccc(N2CCOCC2)cc1)c1cc(Cl)ccc1Cl`
A. active

Q. Test call, this molecule: `CCOc1ccc(/C=N/NC(=O)COc2ccccc2-c2ccccc2)cc1`
A. active

Q. Test call, this molecule: `C[C@H](CO)N1C[C@H](C)[C@@H](CN(C)S(=O)(=O)c2ccc(F)cc2)Oc2ccc(NC(=O)Nc3ccc(C(F)(F)F)cc3)cc2C1=O`
A. active

====

- System: HMLE_sh_eGFP viability, CellTiter-Glo luminescence, 72 h
- Protocol details: cytotoxicity in HMLE control line with eGFP shRNA, dose response, counter-screen for HMLE_sh_ECad selective toxicity project, cell-based, HMLE_sh_eGFP, luminescence (AID 463074);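 further: counterscreen control line to flag general toxicity for the HMLE_sh_ECad screen; potency for loss of viability as luminescence drops below DMSO wells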
The source made the active and inactive calls.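 How the source made its calls: active means AC50 no more than tenfold above the top dose tested, or full inhibition at every dose with a flat fit (cut at about 19 µM in these data); inconclusive means flat curve fit with inhibition between 30% and 70%, or poor fit; inactive means AC50 more than tenfold above the top dose tested.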
Would you mind answering with one of these outcomes? active, inactive

Some entries whose results are on file:
INSERT INTO measurements (mol_smiles, answer_label) VALUES
  ('c1ccc2c(-c3ccc(OCCN4CCCCC4)cc3)c(-c3ccsc3)sc2c1', 'active'),
  ('Cc1cc(C)nc(NC(=NCCc2c[nH]c3ccccc23)NC(=O)Nc2ccc(Cl)cc2)n1', 'inactive'),
  ('COc1cccc(-c2sc3ccc(OC)cc3c2C#CC2(O)CCCCC2)c1', 'active'),
  ('Cc1c(O)cccc1C(=O)N[C@@H](CSc1ccccc1)[C@H](O)CN1C[C@H]2CCCC[C@H]2C[C@H]1C(=O)NC(C)(C)C', 'active'),
  ('Cc1ccc(S(=O)(=O)Nc2ccc(-c3csc(-c4ccccc4)n3)cc2)cc1', 'active');

Now let's try a different one.
Q. Test call, this molecule: `Cc1ccc(CCC(=O)Nc2ncc(Cc3cc(Cl)ccc3Cl)s2)o1`
A. active

====

Consider the following molecules and their measured AC50 readings.
- Test system: HMLE_sh_eGFP viability, CellTiter-Glo luminescence, 72 h
- Protocol details: cytotoxicity in HMLE control line with eGFP shRNA, dose response, counter-screen for HMLE_sh_ECad selective toxicity project, cell-based, HMLE_sh_eGFP, luminescence (AID 463074);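 further: counterscreen control line to flag general toxicity for the HMLE_sh_ECad screen; potency for loss of viability as luminescence drops below DMSO wells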

The following molecules have reported results that may help.
INSERT INTO results (molecule, test_target, reported_value) VALUES
  ('O=C(NCC(c1cccs1)N1CCOCC1)c1ccc(Cl)s1 (stereo not given)', 'HMLE_sh_eGFP viability, CellTiter-Glo luminescence, 72 h', '1.76 µM'),
  ('c1ccc(C[C@H]2CNCCN2CCCCC2CCCCC2)cc1', 'HMLE_sh_eGFP viability, CellTiter-Glo luminescence, 72 h', '6.83 µM'),
  ('CNC(=O)NC(=O)C(C)OC(=O)c1oc2ccccc2c1CSc1ccc(Cl)cc1 (stereo not given)', 'HMLE_sh_eGFP viability, CellTiter-Glo luminescence, 72 h', '19.3 µM'),
  ('Cc1c(O)cc2c(c1O)C(=O)CC(c1ccccc1)O2 (stereo not given)', 'HMLE_sh_eGFP viability, CellTiter-Glo luminescence, 72 h', '15.2 µM'),
  ('CC(C)(C)OC(=O)N1CCC(NC(=O)c2[nH]cnc2C(=O)Nc2ccc(Cl)cc2)CC1', 'HMLE_sh_eGFP viability, CellTiter-Glo luminescence, 72 h', '5.94 µM'),
  ('O=C(Nc1ccccc1Cc1ccccc1)c1ccccc1NS(=O)(=O)c1ccc(Cl)s1', 'HMLE_sh_eGFP viability, CellTiter-Glo luminescence, 72 h', '1.84 µM');

Form: molecule = `COc1cc(Cl)c(NC2=CC(=O)C(=O)c3ccccc32)c(OC)c1` ; AC50 = 3.57 µM

Form: molecule = `Cc1c(C)n(CCc2ccccc2)c2ncnc(NCCCN(C)C)c12` ; AC50 = 5.52 µM

Form: molecule = `CN1/C(=C\C(=O)Nc2ccc(Br)cc2)C(C)(C)c2ccccc21` ; AC50 = 7.32 µM

Form: molecule = `COc1cc(NC(=O)c2cc3ccccc3cc2O)c(OC)cc1Cl` ; AC50 = 1.17 µM

Form: molecule = `O=C(C[C@@H]1C/C=C/CC[C@H](Cc2ccc(F)cc2)C(=O)OC[C@@H](Cc2ccccc2)NC1=O)N[C@H](CO)Cc1ccccc1` ; AC50 = 1.56 µM

Form: molecule = `CCCCCCCCCCCCN1[C@@H](CC(C)=O)c2cc(F)ccc2S1(=O)=O` ; AC50 = 10 µM

Form: molecule = `O=C(Nc1ccc(Cl)cc1)c1cc2c(cc1O)[nH]c1ccccc12` ; AC50 = 0.488 µM

Form: molecule = `O=C(NC(=S)Nc1cccc(Cl)c1N1CCCCC1)c1ccco1` ; AC50 = 3.81 µM

Form: molecule = `Oc1ccc(Cl)cc1-c1cc(-c2cccc(Br)c2)n[nH]1` ; AC50 = 6.39 µM

Form: molecule = `CC(=O)c1ccc(N2CCN(S(=O)(=O)c3cc(-c4cc(C)no4)ccc3C(C)C)CC2)cc1` ; AC50 = 0.205 µM
